The reported numbers originate from ChEMBL document CHEMBL4715855.

tested on: NCI-H226; test: Antiproliferative activity against human NCI-H226 cells assessed as cell growth inhibition measured after 48 hrs by sulforhodamine B assay; assay type: functional, cell-based; conditions: NCI-H226, 48 h
readout-kind: IC50 (µM)
Value expressed in µM; do not type the unit.

compound-smiles: CCNC(=O)Nc1ccc(S(=O)(=O)Oc2ccccc2CC)cc1
output-unit: µM
IC50: 9.33

Turning now to a further molecule:
Could you tell me which IC50 is on file for `Cc1c(-c2ccc(-c3ccccc3F)cc2)nc2ccc(F)cc2c1C(=O)O` ?
19.5

---

compounds and their reported IC50
test system: SW-620; assay: Antiproliferative activity against human SW-620 cells assessed as cell growth inhibition measured after 48 hrs by sulforhodamine B assay; type: functional, cell-based; details: SW-620, 48 h
Number only, in nM; omit the unit.

compound: Cc1c(-c2ccc(-c3ccccc3F)cc2)nc2ccc(F)cc2c1C(=O)O [BREQUINAR]
readout-kind: IC50
recorded-number: 380

// next entry
Would you kindly share the measured IC50 for `CCNC(=O)Nc1ccc(S(=O)(=O)Oc2ccccc2CC)cc1` ?
2750

---

system: LOX IMVI; assay: Antiproliferative activity against human LOX IMVI cells assessed as cell growth inhibition measured after 48 hrs by sulforhodamine B assay; format: functional, cell-based
The entries below come with measured pIC50 values attached.
Just so you know, pIC50 here is -log10 of the concentration in molar units; reply with that number alone.

compound-smiles: Cc1c(-c2ccc(-c3ccccc3F)cc2)nc2ccc(F)cc2c1C(=O)O
target-of-assay: LOX IMVI
recorded-number: 7.03

Field: next compound
Form field: reported pIC50 of `CCNC(=O)Nc1ccc(S(=O)(=O)Oc2ccccc2CC)cc1`
6.38
